assay: qHTS RealTime-Glo MT Cell Viability Assay in HEK293 cells - 8 hour (AID 1224887); details: RealTime-Glo luminescence; series mostly up to 76.8 µM; note: top concentration of the series differs between compounds; nearly all actives have a fitted effect of over 50% in size
Records with an inconclusive call do not appear. Active and inactive are the calls of the source. Calls come from the whole dose curve; as a rule, active = well fitted cell-killing curve with a large enough effect in the repeat runs; inconclusive = weak or mixed curves, or effect the other way; inactive = flat fitted curve, though single readings scatter.
Response enum: 1.0 (active), 0.0 (inactive)

Q: GET /call?item= Clc1cccc(SC2CCNCC2)n1 returns the recorded outcome of this test.
Ans: 0.0

Q: GET /call?item= ClCC(Br)CBr (configuration not stated) returns the recorded outcome of this test.
Ans: 0.0

---

test: qHTS assay to identify small molecule antagonists of the glucocorticoid receptor (GR) signaling pathway - cell viability counter screen (AID 720693); settings: GR-bla HeLa viability, CellTiter-Glo luminescence, 18 h, with 5 nM dexamethasone present; series mostly up to 58.5 µM; note: nearly all actives have a fitted effect of over 55% in size
Inconclusive results are not listed. The source made the active and inactive calls. Calls follow the shape of the dose curve; as a rule, active = well fitted cell-killing curve with a large enough effect in the repeat runs; inconclusive = weak or mixed curves, or effect the other way; inactive = no such curve, though single readings can be large or run the other way.
Response enum: class 1 = active, class 0 = inactive

Q: GET /call?item= O=C=Nc1ccc(Cl)cc1 returns the recorded outcome of this test.
Ans: class 0

Q: GET /call?item= C=CC(=O)OC(C)(C)C returns the recorded outcome of this test.
Ans: class 0

Q: GET /call?item= COC(=O)C(Cl)C(=O)OC returns the recorded outcome of this test.
Ans: class 0

Q: GET /call?item= N#CCC#N returns the recorded outcome of this test.
Ans: class 0

Q: GET /call?item= O=S(=O)(Cl)c1ccccc1 returns the recorded outcome of this test.
Ans: class 0

Q: GET /call?item= COc1nn(C(=O)NS(=O)(=O)c2ccccc2OC(F)(F)F)c(=O)n1C returns the recorded outcome of this test.
Ans: class 0

Q: GET /call?item= Cc1ccccc1C(=O)Nc1cccc(OC(C)C)c1 returns the recorded outcome of this test.
Ans: class 0

Q: GET /call?item= CCOP(=S)(OCC)Oc1cc(Cl)c(Br)cc1Cl returns the recorded outcome of this test.
Ans: class 0

Q: GET /call?item= CCCCCCC#N returns the recorded outcome of this test.
Ans: class 0

Q: GET /call?item= c1ccoc1 returns the recorded outcome of this test.
Ans: class 0

Q: GET /call?item= NS(=O)(=O)C(F)(F)C(F)(F)C(F)(F)C(F)(F)C(F)(F)C(F)(F)C(F)(F)C(F)(F)F returns the recorded outcome of this test.
Ans: class 1

# credit: PubChem BioAssay (Tox21)
